# Tested on: Escherichia coli TOP10
# assayName: shrunken log2 fold change of peptide-encoding DNA abundance (4.5 h post-induction vs induction); higher = less antimicrobial activity (less host growth inhibition)
# conditionParameters: time post-induction: 4.5 h; library: site-saturation at positions 5, 18, 19, 20
Please use met whenever shrunken log2 fold change is not below 0.06, and not met whenever it is.

[[record]]
residues = "RRIRFRPPRLPRPRPRPSNEPRP"
qualitativelabel = "not met"

[[record]]
residues = "RRIRSRPPRLPRPRPRPAYVPRP"
qualitativelabel = "not met"

[[record]]
residues = "RRIRNRPPRLPRPRPRPDWSPRP"
qualitativelabel = "not met"

[[record]]
residues = "RRIRCRPPRLPRPRPRPAHRPRP"
qualitativelabel = "met"


Next:
Q. Reported shrunken log2 fold change at or above 0.06? RRIRFRPPRLPRPRPRPDYEPRP
A. not met

====

# System: Escherichia coli TOP10
# assayName: shrunken log2 fold change of peptide-encoding DNA abundance (4.5 h post-induction vs induction); higher = less antimicrobial activity (less host growth inhibition)
# conditionParameters: time post-induction: 4.5 h; library: site-saturation at positions 5, 18, 19, 20
Assignment: determine reported shrunken log2 fold change for the given sequences.

Provide reported shrunken log2 fold change for each item, in the same order as listed.
1. RRIRYRPPRLPRPRPRPKMKPRP
2. RRIRPRPPRLPRPRPRPAFYPRP
3. RRIRWRPPRLPRPRPRPHLLPRP
4. RRIRRRPPRLPRPRPRPNPYPRP
5. RRIRPRPPRLPRPRPRPPFTPRP

A.
-0.404
-0.00911
-0.66
-0.0616
0.185

Please state, for each entry, its recorded shrunken log2 fold change.
1. RRIRCRPPRLPRPRPRPGTDPRP
2. RRIRVRPPRLPRPRPRPPGDPRP
3. RRIRQRPPRLPRPRPRPWCIPRP
4. RRIRHRPPRLPRPRPRPWDTPRP
5. RRIRIRPPRLPRPRPRPSIVPRP

A.
-0.00121
0.12
0.0342
-0.164
-0.477

====

# Test system: Escherichia coli TOP10
# assayName: shrunken log2 fold change of peptide-encoding DNA abundance (4.5 h post-induction vs induction); higher = less antimicrobial activity (less host growth inhibition)
# conditionParameters: time post-induction: 4.5 h; library: site-saturation at positions 5, 18, 19, 20
Would you please tag the item fulfilled when its shrunken log2 fold change is 0.06 or above, and not fulfilled when it is below?

[[record]]
residues = "RRIRKRPPRLPRPRPRPYRNPRP"
qualitativelabel = "not fulfilled"

[[record]]
residues = "RRIRCRPPRLPRPRPRPKFHPRP"
qualitativelabel = "not fulfilled"

[[record]]
residues = "RRIRDRPPRLPRPRPRPTCQPRP"
qualitativelabel = "fulfilled"

[[record]]
residues = "RRIRGRPPRLPRPRPRPWTRPRP"
qualitativelabel = "not fulfilled"

[[record]]
residues = "RRIRGRPPRLPRPRPRPEKGPRP"
qualitativelabel = "fulfilled"

[[record]]
residues = "RRIRWRPPRLPRPRPRPTLVPRP"
qualitativelabel = "not fulfilled"


Q. Tell me whether shrunken log2 fold change is at least 0.06 here: RRIRYRPPRLPRPRPRPKPGPRP
A. fulfilled

Q. Quick check: does RRIRGRPPRLPRPRPRPDRAPRP have shrunken log2 fold change greater than or equal to 0.06?
A. fulfilled

====

Could you please report measured shrunken log2 fold change for the items listed next?
# Tested on: Escherichia coli TOP10
# assayName: shrunken log2 fold change of peptide-encoding DNA abundance (4.5 h post-induction vs induction); higher = less antimicrobial activity (less host growth inhibition)
# conditionParameters: time post-induction: 4.5 h; library: site-saturation at positions 5, 18, 19, 20
Numbers only.

Field: example entries. Status: answers known.
[[record]]
residues = "RRIRNRPPRLPRPRPRPWHNPRP"
endpointresult = -0.146

[[record]]
residues = "RRIRIRPPRLPRPRPRPKHGPRP"
endpointresult = -0.113

[[record]]
residues = "RRIRPRPPRLPRPRPRPESLPRP"
endpointresult = -0.0197

[[record]]
residues = "RRIRNRPPRLPRPRPRPMFQPRP"
endpointresult = -0.0465

[[record]]
residues = "RRIRQRPPRLPRPRPRPGAPPRP"
endpointresult = 0.307

[[record]]
residues = "RRIRIRPPRLPRPRPRPSDFPRP"
endpointresult = -0.611

[[record]]
residues = "RRIRQRPPRLPRPRPRPGSRPRP"
endpointresult = 0.166

[[record]]
residues = "RRIRYRPPRLPRPRPRPIYGPRP"
endpointresult = -0.428

[[record]]
residues = "RRIRERPPRLPRPRPRPDHQPRP"
endpointresult = -0.223

[[record]]
residues = "RRIRCRPPRLPRPRPRPIATPRP"
endpointresult = 0.366


// for each sequence below, give its shrunken log2 fold change
1. RRIRWRPPRLPRPRPRPWFMPRP
2. RRIRARPPRLPRPRPRPRYFPRP
3. RRIRTRPPRLPRPRPRPIKDPRP
4. RRIRPRPPRLPRPRPRPFFVPRP
5. RRIRERPPRLPRPRPRPDRDPRP
6. RRIRHRPPRLPRPRPRPNAKPRP
7. RRIRKRPPRLPRPRPRPLCGPRP

A.
-0.222
-0.0939
-0.104
0.064
-0.0369
-0.117
0.367

Each of the following entries comes with a recorded value; kindly state shrunken log2 fold change for each.
1. RRIRGRPPRLPRPRPRPKENPRP
2. RRIRGRPPRLPRPRPRPVIFPRP

A.
1. 0.791
2. 0.598

Report shrunken log2 fold change for each item below.
1. RRIRWRPPRLPRPRPRPVVHPRP
2. RRIRNRPPRLPRPRPRPGYKPRP
3. RRIRMRPPRLPRPRPRPEEVPRP
4. RRIRNRPPRLPRPRPRPQKFPRP
5. RRIRWRPPRLPRPRPRPTHSPRP
6. RRIRARPPRLPRPRPRPYHSPRP

A.
-0.102
0.0376
0.00922
-0.0476
0.331
-0.237

Required: shrunken log2 fold change, one value per sequence below.
1. RRIRPRPPRLPRPRPRPVLWPRP
2. RRIRLRPPRLPRPRPRPPGVPRP
3. RRIRSRPPRLPRPRPRPGRIPRP
4. RRIRTRPPRLPRPRPRPRDQPRP
5. RRIRERPPRLPRPRPRPYQIPRP

A.
1. 0.374
2. 0.426
3. -0.0494
4. 0.224
5. -0.388

Record shrunken log2 fold change for all entries; do not skip any.
1. RRIRERPPRLPRPRPRPMLQPRP
2. RRIRWRPPRLPRPRPRPEMHPRP

A.
1. -0.161
2. 0.952

====

# Tested on: Escherichia coli TOP10
# assayName: shrunken log2 fold change of peptide-encoding DNA abundance (4.5 h post-induction vs induction); higher = less antimicrobial activity (less host growth inhibition)
# conditionParameters: time post-induction: 4.5 h; library: site-saturation at positions 5, 18, 19, 20
measure: shrunken log2 fold change
One number for each entry.

// worked examples, shrunken log2 fold change included
[[record]]
residues = "RRIRYRPPRLPRPRPRPDVNPRP"
measure = "shrunken log2 fold change"
endpointresult = -0.0115

[[record]]
residues = "RRIRARPPRLPRPRPRPPQSPRP"
measure = "shrunken log2 fold change"
endpointresult = 0.993

[[record]]
residues = "RRIRVRPPRLPRPRPRPADCPRP"
measure = "shrunken log2 fold change"
endpointresult = 0.0869

[[record]]
residues = "RRIRMRPPRLPRPRPRPDCCPRP"
measure = "shrunken log2 fold change"
endpointresult = 2.61

[[record]]
residues = "RRIRRRPPRLPRPRPRPVGGPRP"
measure = "shrunken log2 fold change"
endpointresult = 0.984

[[record]]
residues = "RRIRERPPRLPRPRPRPVSEPRP"
measure = "shrunken log2 fold change"
endpointresult = 0.164


Would you mind listing shrunken log2 fold change for each of the following sequences?
1. RRIRHRPPRLPRPRPRPAFQPRP
2. RRIRMRPPRLPRPRPRPSWLPRP

A.
[-0.0477, 0.0725]

====

# Tested on: Escherichia coli TOP10;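 note: peptides expressed intracellularly from a pBAD plasmid library in pooled LB shake-flask culture, induced with 0.3% L-arabinose, DNA abundance read by NGS, three biological replicates, DESeq2 with apeglm shrinkage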
# assayName: shrunken log2 fold change of peptide-encoding DNA abundance (4.5 h post-induction vs induction); higher = less antimicrobial activity (less host growth inhibition)
# conditionParameters: time post-induction: 4.5 h; library: site-saturation at positions 5, 18, 19, 20
Tag: yes (1) if measured shrunken log2 fold change is not below 0.1, no (0) if it is.

[[record]]
residues = "RRIRLRPPRLPRPRPRPQTIPRP"
qualitativelabel = "no (0)"


Q. Has RRIRKRPPRLPRPRPRPPMWPRP a recorded shrunken log2 fold change greater than or equal to 0.1?
A. yes (1)

Q. shrunken log2 fold change >= 0.1 for RRIRDRPPRLPRPRPRPWIEPRP ?
A. yes (1)

Q. Reported shrunken log2 fold change at or above 0.1? RRIRTRPPRLPRPRPRPVHVPRP
A. no (0)

Q. Could you please find out whether RRIRWRPPRLPRPRPRPNMSPRP has shrunken log2 fold change that meets 0.1 or exceeds it?
A. no (0)

Q. Decide: is the reported value of shrunken log2 fold change for RRIRFRPPRLPRPRPRPDQIPRP equal to or greater than 0.1?
A. no (0)

Q. Determine whether measured shrunken log2 fold change meets or exceeds 0.1 for RRIRDRPPRLPRPRPRPTFKPRP
A. no (0)

Q. Given the entry RRIRPRPPRLPRPRPRPMQTPRP , answer whether its shrunken log2 fold change meets or surpasses 0.1.
A. yes (1)

Q. // inclusive: shrunken log2 fold change at least 0.1? input: RRIRGRPPRLPRPRPRPKFEPRP
A. yes (1)

Q. shrunken log2 fold change >= 0.1 for RRIRRRPPRLPRPRPRPPRAPRP ?
A. yes (1)

Q. # check: shrunken log2 fold change of RRIRQRPPRLPRPRPRPLFFPRP is greater than or equal to 0.1
A. no (0)

Q. Quick check: does RRIRWRPPRLPRPRPRPIQCPRP have shrunken log2 fold change greater than or equal to 0.1?
A. no (0)

Q. Answer whether shrunken log2 fold change of RRIRMRPPRLPRPRPRPNCVPRP is greater than or equal to 0.1.
A. no (0)

Q. Reported shrunken log2 fold change at or above 0.1? RRIRVRPPRLPRPRPRPQFGPRP
A. no (0)

Q. // inclusive: shrunken log2 fold change at least 0.1? input: RRIRPRPPRLPRPRPRPRCPPRP
A. yes (1)

Q. Does RRIRPRPPRLPRPRPRPKVGPRP have a reported shrunken log2 fold change of at least 0.1?
A. yes (1)

Q. Can RRIRNRPPRLPRPRPRPRNMPRP be said to have shrunken log2 fold change at or above 0.1?
A. no (0)

Q. Decide: is the reported value of shrunken log2 fold change for RRIRERPPRLPRPRPRPHTSPRP equal to or greater than 0.1?
A. no (0)

Q. Can RRIRVRPPRLPRPRPRPEDIPRP be said to have shrunken log2 fold change at or above 0.1?
A. no (0)

Q. Please check the record RRIRCRPPRLPRPRPRPHDMPRP and state if its shrunken log2 fold change is at or above 0.1.
A. no (0)

Q. Check if shrunken log2 fold change >= 0.1 (inclusive). Item: RRIRGRPPRLPRPRPRPKGQPRP
A. yes (1)
